- test name: growth of efflux-deficient E. coli DRC39 – strain DRC39, OD650, 24 h, E. coli filamentation inducers, primary screen (AID 1178);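 note: growth measured as culture turbidity by optical density at 650 nm; test concentration not given here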
- measurement setup: E. coli DRC39 acrAB, higher = more signal, called active from +8 up or from −8 down
experimental readout: z-score
One number for each entry.

Field: example entries. Status: answers known.
compound | experimental readout | quantitative result
NC(=O)[C@]1(Cc2ccccc2)N=C(c2ccc(OCCCO)cc2)O[C@@H]1c1ccccc1 | z-score | 0.0671
CN(C)CCCCCCNC(=O)[C@@H]1C[C@@H]2C(=O)N[C@@H](Cc3ccccc3)C(=O)N2[C@@H]1c1cccc(OCCO)c1 | z-score | 0.25
CC(C)C(O)C1C=CC2C(=O)N(C)C(=O)C2N1N1CCCCC1 (stereo not drawn) | z-score | -0.754

List reported z-score for each of these compounds:
1. O=S(=O)(NCCCO)c1ccc(Br)cc1
2. CCN(CC)c1ccc(N2CC=CC34O[C@@H]5/C=C\CCC(C)OC(=O)C5[C@H]3C(=O)N(CCCCCCO)[C@@H]4C2=O)cc1 (stereo partly drawn)
3. C=C(C(=O)CC[C@@H](OC(=O)c1cccnc1)c1ccc(OCCO)cc1)C(C)C
4. COC(=O)[C@@]1(Cc2ccc(OC)cc2)[C@H]2c3cc(C(=O)N4CCCC4)n(C[C@H](O)CO)c3C[C@H]2CN1C(=O)c1ccccc1
5. CC(C)(C)OC(=O)CC[C@]1(C(=O)NCC(O)CO)N=C(c2ccc(OCCCO)cc2)O[C@H]1c1ccccc1CN=[N+]=[N-] (stereo partly drawn)

[reply]
[1.68, 1.37, -0.706, 0.305, -0.185]

* * *

- test name: small molecules captured by biotinylated probe aFGF10 – biochemical, small-molecule microarray, fluorescence 635/667, stem cell growth factor project, primary screen (AID 1071);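 note: score merges 667 nm spot intensity and signal to noise from triplicate slides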
- measurement setup: higher = more signal
experimental readout: composite z-score
Give bare numbers.

molecule | composite z-score
COCCn1c(C(=O)N2CCCC2)cc2c1C[C@H]1CN(C(=O)c3ccccc3)[C@@](Cc3ccc(OC)cc3)(C(=O)OC)[C@@H]21 | 0.43
COc1ccc([Si](C)(C)[C@@H]2[C@@H](CCn3cc([C@H](O)c4ccccc4)nn3)O[C@]3(C(=O)N(C)c4ccccc43)[C@H]2C)cc1 | 0.181

List reported composite z-score for each of these molecules:
1. Oc1ccc2cc[n+](Cc3cccc(OC(F)(F)F)c3)cc2c1
2. O=C1OCC=C[C@H]2OC34C=CCN(Cc5ccccc5)C(=O)[C@H]3N(CCCO)C(=O)[C@@H]4[C@@H]12 (stereo not given in full)
3. CCOC(=O)C1=C[C@@H](C(C)(C)C)N(S(=O)(=O)c2ccc(C)cc2)[C@H]1c1ccc(Cl)c(Cl)c1

[reply]
[-0.0974, -0.17, 0.614]

List reported composite z-score for each of these molecules:
1. Cc1ccc(S[C@]2(C(=O)NCCN3CCOCC3)CC(=O)N(C3CCCCC3)[C@@H]2c2ccc(CO)cc2)cc1
2. CCOC(=O)C=Cc1cccc(OC)c1O
3. C=C(CCCC)/C(=C/C[C@@H](OC(=O)c1ccncc1)c1ccc(CO)o1)c1cc(C(=O)OC)ccc1OC
4. CCN(CC)c1ccc(N2CC=CC34O[C@@H]5/C=C\CCCOC(=O)C5[C@H]3C(=O)N(CCCO)[C@@H]4C2=O)cc1 (stereo not given in full)

[reply]
0.123
-0.572
0.318
-0.883

List reported composite z-score for each of these molecules:
1. CCOC(=O)C[C@H]1[C@H](OC(=O)c2cc3ccccc3oc2=O)[C@@H](NC(=O)c2ccc3ccccc3c2)c2cc(OCCCO)ccc2N1C(=O)c1ccccc1
2. [N-]=[N+]=Nc1ccccc1[C@@H]1OC(c2ccc(OCCCO)cc2)=N[C@]1(CCS(=O)(=O)c1ccccc1)C(=O)O
3. COCCOC(=O)N1C(=O)[C@@]2(c3ccccc31)[C@H](c1ccc(O)cc1)N1[C@H](c3ccccc3)[C@H](c3ccccc3)OC(=O)[C@H]1[C@@H]2C(N)=O
4. C[N+](C)(C)CCCCNC(=O)[C@H]1C[C@H]2C(=O)N3CCC[C@H]3C(=O)N2[C@H]1c1ccc(O)cc1
5. CO[C@H]1O[C@H](CO)[C@@H](OC(=O)Nc2cccc(F)c2)[C@H](OC(=O)Nc2ccccc2-c2ccccc2)[C@@H]1OC(=O)Nc1ccccc1-c1ccccc1
6. CCOC(=O)N1C(c2ccc(OCCCO)cc2)=NC(C(=O)OC)N1C(=O)OCC (stereo not given)

[reply]
[0.973, 0.839, -0.304, 1.15, 0.669, 0.683]

* * *

Give composite z-score for every item shown.
- test system: Pro-neuregulin-1, membrane-bound isoform (Homo sapiens)
- test name: small molecules binding neuregulin-1 protein – biochemical, small-molecule microarray, fluorescence 635/667, psychiatric disease protein project, primary screen (AID 1075);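 note: score combines 667 nm spot fluorescence with signal to noise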
- measurement setup: NRG1 binding, 635 nm fluorescence, higher = more signal
Numbers only.

Field: example entries. Status: answers known.
compound | test system | composite z-score
C[C@]1(C(=O)NCC(F)(F)F)c2ccccc2C(=O)N(Cc2cc(F)cc(C(F)(F)F)c2)[C@H]1c1ccc(CO)cc1 | Pro-neuregulin-1, membrane-bound isoform (Homo sapiens) | 1.74
COc1ccc([Si](C)(C)[C@@H]2[C@@H](CCO)O[C@]3(C(=O)N(Cc4ccc(N5C(=O)c6cccc7cccc5c67)cc4)c4ccccc43)[C@H]2C)cc1 | Pro-neuregulin-1, membrane-bound isoform (Homo sapiens) | 0.995
O=C1OCC=C[C@H]2OC34C=CCN(Cc5ccccc5)C(=O)[C@H]3N(CCCO)C(=O)[C@@H]4[C@@H]12 (some centres undefined) | Pro-neuregulin-1, membrane-bound isoform (Homo sapiens) | 2.42

Let us move to another entry and its composite z-score.
[ask] For C=CC[C@@]1(C(N)=O)N=C(c2ccc(OCCCO)cc2)O[C@@H]1c1ccccc1N=[N+]=[N-] , write its composite z-score.
[reply] 1.5

* * *

- test system: NADPH oxidase 2 (Homo sapiens)
- test name: compounds shifting NOX2 Amplex Red fluorescence – cell-based, HEK293-NOX2, PMA-stimulated, NOX inhibitor project, primary screen (AID 1159); note: test concentration not given here
- measurement setup: 45 min, higher = more signal, called active from +8 up or from −8 down
Use -0.2 as the dividing line for z-score, with the line itself on the MET side and lower values as NOT MET.

Please review the entries below; each comes with its answer.
compound | answer label
O=C1C2C=CC(C(O)c3cccc4ccccc34)N(n3cnnc3)C2C(=O)N1Cc1ccccc1 (stereo unspecified) | MET
COCCOC(=O)N1C(=O)[C@@]2(c3cc(C#Cc4ccc(OC)cc4)ccc31)[C@H](c1ccc(OCCO)cc1)N1[C@H](c3ccccc3)[C@H](c3ccccc3)OC(=O)[C@H]1[C@@H]2C(=O)N1CCc2cc(OC)c(OC)cc2C1 | MET
CCN(CC)c1ccc(N2CC=CC34O[C@@H]5/C=C\CCC(C)OC(=O)C5[C@H]3C(=O)N(CCCCCCO)[C@@H]4C2=O)cc1 (stereo partly specified) | NOT MET

[ask] Could you please find out whether O=C(NCc1ccccc1)[C@@H]1c2ccccc2C(=O)N(Cc2cc(F)cc(C(F)(F)F)c2)[C@H]1c1ccc(CO)cc1 has z-score that meets -0.2 or exceeds it?
[reply] NOT MET

[ask] Could you please find out whether C=C(/C(=C/C[C@@H](OC(C)=O)c1ccc(CO)o1)c1cnc2ccccc2c1)C(C)C has z-score that meets -0.2 or exceeds it?
[reply] MET

[ask] Could you please find out whether C=CCOC(=O)[C@H]1[C@@H]2C(=O)O[C@@H](c3ccccc3)[C@@H](c3ccccc3)N2[C@@H](c2ccc(OCCOC(=O)[C@H]3C[C@H]4C(=O)N[C@@H](CCCC[N+](C)(C)C)C(=O)N4[C@H]3c3ccc(O)cc3)cc2)[C@]12C(=O)Nc1ccccc12 has z-score that meets -0.2 or exceeds it?
[reply] MET

* * *

Give composite z-score for every item shown.
- test system: Torsin-1A (Homo sapiens) (UniProt O14656)
- Sequence (O14656 whole entry, looked up): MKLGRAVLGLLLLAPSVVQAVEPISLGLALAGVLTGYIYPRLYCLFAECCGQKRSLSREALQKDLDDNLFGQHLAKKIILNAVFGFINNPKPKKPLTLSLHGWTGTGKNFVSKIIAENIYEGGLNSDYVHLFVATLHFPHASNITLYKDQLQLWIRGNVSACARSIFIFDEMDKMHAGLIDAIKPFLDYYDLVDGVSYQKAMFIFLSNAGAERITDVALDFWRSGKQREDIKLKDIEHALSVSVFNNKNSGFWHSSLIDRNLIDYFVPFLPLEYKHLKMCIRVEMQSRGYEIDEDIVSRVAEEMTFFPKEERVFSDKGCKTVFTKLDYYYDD
- test name: torsin A mutant lysate binding on microarrays – cell lysate, small-molecule microarray, COS7 lysate, 635/667 nm fluorescence, primary screen (AID 1150);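 note: score pools 667 nm emission and signal to noise measuring lysate protein binding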
- measurement setup: COS7 hTOR1A mutant lysate, 635 nm fluorescence, higher = more signal

Field: example entries. Status: answers known.
smiles | composite z-score
COc1ccc([Si](C)(C)[C@H]2[C@H](CC(=O)N3CCC[C@H]3CO)O[C@@]3(C(=O)N(c4ccccc4)c4ccccc43)[C@@H]2C)cc1 | 0.0932
COc1ccc([Si](C)(C)[C@H]2[C@H](CC(=O)N(CCO)Cc3ccccc3)O[C@@]3(C(=O)N(Cc4cccc(N5C(=O)c6cccc7cccc5c67)c4)c4ccccc43)[C@@H]2C)cc1 | 0.27

Let us move to another entry and its composite z-score.
[ask] For C=CC[C@@]1(C(=O)NCCN2CCOCC2)N=C(c2ccc(OCCCO)cc2)O[C@@H]1c1ccccc1CN=[N+]=[N-] , write its composite z-score.
[reply] 1.16

Measured values drawn from PubChem BioAssay for this set.
